- experimental.target: EGFR-mFc (Homo sapiens, UniProt P00533)
- assay.notes: SPR (BIACORE) binding kinetics, receptor-capture format
- applied.conditions: 37° C., EGFR-mFc captured, NB=no binding
measured.endpoint: ka

The reported ka of the molecule H1H1911N: human IgG1 Fc anti-EGFRvIII antibody with variable domains 1911; HCVR/LCVR SEQ ID NOs 50/58 (antibody, V domains shown, human IgG1 Fc) VH: QVQLVESGGGVVQPGRSLRLSCAASGFTFSRYGIHWVRQAPGKGLEWVAVIWHDGSNKYYADSVKGRFTISRDNSKNTLYLQMTSLRAEDTAVYYCARDGLEIRDHYYYGMDVWGQGTTVTVSS VL: DIQMTQSPSTLSASVGDRVTITCRASQSTSSWLAWYQQKPGKAPTLLIYKASSLESGVPSKFSGSGSGTEFTLTISSLQPDDFATYYCQQYNRYSRTFGQGTKVEIK was 7770 M⁻¹ s⁻¹

The reported ka of the molecule H1H2195P: human IgG1 Fc anti-EGFRvIII antibody; HCVR/LCVR SEQ ID NOs 18/26 (antibody, V domains shown, human IgG1 Fc) VH: QVQLVESGGGVVQPGRSRRLSCVGSGFIFSSYGMHWVRQAPGKGLEWVALIFYDGSNEYYVDSVKGRFTISRDNSKNTLYLQMNSLRAEDTAVYYCAREGYSQRYKYYFGMDVWGQGTTVTVSS VL: DIQMTQSPSSVSASVGDRVTITCRASQGISSWLAWYQQQPGKAPKLLIYAASSLQSGVPSRFSGSGSGTDFTLTISSLQPEDFATYYCQQTNSFPLTFGGGTKVEIKR was 225000 M⁻¹ s⁻¹
